Exercise: state measured CC50 at 24 h for each of the compounds provided.
ASSAY PROTOCOL: Cytotoxicity assay (MTS) in Vero cells
PROTOCOL CONDITIONS: African green monkey, Vero cells
Numbers only, in µg/mL.

O=C(O)[C@H]1O[C@@H](Oc2cc3oc(-c4ccccc4)cc(=O)c3c(O)c2O)[C@H](O)[C@@H](O)[C@@H]1O [Baicalin, reference compound]; 30.5

Provide one value: measured CC50 at 24 h of O=c1cc(-c2ccccc2)oc2cc(O)c(O)c(O)c12 [Baicalein]
829

---

ASSAY PROTOCOL: Cytotoxicity assay (MTS) in RD cells
PROTOCOL CONDITIONS: human, CC50 (half maximal cytotoxic concentration), 24 h, MTS assay, extrapolated value, above the tested concentration of 108 μg/mL
PARAMETER MEASURED: CC50 at 24 h (µg/mL)
One number for each entry, in µg/mL.

Provide one value: measured CC50 at 24 h of O=c1cc(-c2ccccc2)oc2cc(O)c(O)c(O)c12
421
